test system: 994946-033-R-J1-PDC complex spheroid viability; test: Anticancer human tumor 994946-033-R-J1-PDC patient-derived melanoma cell line growth inhibition [POLQ]; details: second compound 0.1 µM; first compound 0.0316 µM; stronger effect = lower value;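 also: spheroids exposed to drugs for 7 days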
Please use fulfilled for viability, T/C under 80% and not fulfilled for everything else, ties included.

# count of solved cases: 7
- Molecule: "O=C(Nc1ccc(O)c(NS(=O)(=O)c2ccc(F)cc2)c1)c1ccc(-c2ccccc2)cc1 + COC1C(OC(N)=O)C(O)C(Oc2ccc3c(O)c(NC(=O)c4ccc(O)c(CC=C(C)C)c4)c(=O)oc3c2C)OC1(C)C"
  Discrete Label: "not fulfilled"
- Molecule: "COc1ccc([C@@H](O)c2cc(-c3ncnc4cc(N5CCOCC5)ccc34)c(F)cc2Cl)nn1 + COC1C(OC(N)=O)C(O)C(Oc2ccc3c(O)c(NC(=O)c4ccc(O)c(CC=C(C)C)c4)c(=O)oc3c2C)OC1(C)C"
  Discrete Label: "not fulfilled"
- Molecule: "Cn1ncnc1[C@H]1c2n[nH]c(=O)c3cc(F)cc(c23)N[C@@H]1c1ccc(F)cc1 + Nc1ccc(C#CCN(C(=O)Cc2ncc(C(F)(F)F)cc2C(F)(F)F)c2ccc(F)cc2)nn1"
  Discrete Label: "fulfilled"
- Molecule: "O=C(c1cc(Cc2n[nH]c(=O)c3ccccc23)ccc1F)N1CCN(C(=O)C2CC2)CC1 + Cc1cccc(N(C)C(=O)C2C(O)CCN2c2nc(C)cc(C(F)(F)F)c2C#N)c1"
  Discrete Label: "not fulfilled"
- Molecule: "CCc1cc2c(N3CCc4c(cc(Cn5ccnc5)cc4-c4cn(C)nc4C(F)(F)F)C3=O)ccnc2c(OC)n1 + Cc1cccc(N(C)C(=O)C2C(O)CCN2c2nc(C)cc(C(F)(F)F)c2C#N)c1"
  Discrete Label: "not fulfilled"
- Molecule: "CC[C@@]1(O)C(=O)OCc2c1cc1n(c2=O)Cc2cc3c(CN(C)C)c(O)ccc3nc2-1 + COC1C(OC(N)=O)C(O)C(Oc2ccc3c(O)c(NC(=O)c4ccc(O)c(CC=C(C)C)c4)c(=O)oc3c2C)OC1(C)C"
  Discrete Label: "fulfilled"
- Molecule: "CC1COCCN1c1cc(C2(O)CC3CCC(C2)O3)c2cnn(-c3ccn[nH]3)c2n1 (stereo not given) + Nc1ccc(C#CCN(C(=O)Cc2ncc(C(F)(F)F)cc2C(F)(F)F)c2ccc(F)cc2)nn1"
  Discrete Label: "fulfilled"

Would you kindly look at the next entry?
Find out if reported viability, T/C for CCc1cc2c(N3CCc4c(cc(Cn5ccnc5)cc4-c4cn(C)nc4C(F)(F)F)C3=O)cc(C)nc2c(OC)n1 + Cc1cccc(N(C)C(=O)C2C(O)CCN2c2nc(C)cc(C(F)(F)F)c2C#N)c1 is less than 80% fulfilled

Where these numbers come from: PubChem BioAssay AID1963827
